- Test system: BxPC-3 cells
- assayDetails: MTT assay, BxPC-3
- Assay type: cell-based
- settings: Homo sapiens, BXPC-3, 24 h, read-out: IC50(2)
pIC50: −log10 of the molar value.
measurementType: pIC50

{"compound": "COC(=O)[C@H](Cc1ccccc1)N[C@H](c1ccccc1)c1c(O)ccc2ccccc12 (mixture of isomers) [MMZ-45B]", "measurement": 4.39}
{"compound": "COC(=O)C[C@H](N[C@H](c1ccccc1)c1c(O)ccc2ccccc12)C(=O)OC (mixture of isomers) [MMZ-147CE]", "measurement": 4.39}

---

- assayDetails: MTT cell viability, WI-38 normal fibroblasts
- Type: cell-based
- settings: human, WI-38 normal fibroblast cells, WI-38, 72 h, compound at IC50 concentration estimated for BxPC-3 cells; read-out: % cell viability ± SD

{"molecule": "COC(=O)[C@@H]1CCCN1[C@@H](c1ccccc1)c1c(O)ccc2ccccc12 (mixture of isomers) [MMZ-140C]", "viability at 72 h (%)": 82.3}
{"molecule": "COC(=O)C[C@H](N[C@@H](c1ccccc1)c1c(O)ccc2ccccc12)C(=O)OC (mixture of isomers) [MMZ-147B]", "viability at 72 h (%)": 72.5}

---

Each item that follows carries a reported IC50.
- Test system: BxPC-3 cells
- assayDetails: MTT assay, BxPC-3
- Format: cell-based
- settings: Homo sapiens, BXPC-3, 24 h, read-out: Mean IC50 ± SD

{"compound": "COC(=O)C[C@H](N[C@H](c1ccccc1)c1c(O)ccc2ccccc12)C(=O)OC (mixture of isomers) [MMZ-147CE]", "assayedTarget": "BxPC-3 cells", "IC50 (µM)": 47.5}
{"compound": "COC(=O)[C@H](Cc1ccccc1)N[C@H](c1ccccc1)c1c(O)ccc2ccccc12 (mixture of isomers) [MMZ-45B]", "assayedTarget": "BxPC-3 cells", "IC50 (µM)": 49.3}

---

- System: BxPC-3 cells
- assayDetails: MTT assay, BxPC-3
- Format: cell-based
- settings: Homo sapiens; BxPC-3, 72-h MTT; read-out: Mean IC50 ± SD
pIC50: −log10 of the molar value.
measurementType: pIC50

{"molecule": "COC(=O)[C@H](CC(C)C)N[C@@H](c1ccccc1)c1c(O)ccc2ccccc12 (mixture of isomers) [MMZ-167C]", "measurement": 4.49}
{"molecule": "COC(=O)[C@@H](N[C@@H](c1ccccc1)c1c(O)ccc2ccccc12)C(C)C (mixture of isomers) [MMZ-33D]", "measurement": 4.40}
{"molecule": "COC(=O)C[C@H](N[C@@H](c1ccccc1)c1c(O)ccc2ccccc12)C(=O)OC (mixture of isomers) [MMZ-147B]", "measurement": 4.26}
{"molecule": "COC(=O)[C@@H](N[C@@H](c1ccc(Cl)cc1)c1c(O)ccc2ccccc12)C(C)C (mixture of isomers) [MMZ-39AA]", "measurement": 4.36}
{"molecule": "COC(=O)[C@@H]1CCCN1[C@@H](c1ccccc1)c1c(O)ccc2ccccc12 (mixture of isomers) [MMZ-140C]", "measurement": 4.49}
{"molecule": "O=c1[nH]cc(F)c(=O)[nH]1 [5-Fluorouracil, reference compound]", "measurement": 4.87}
{"molecule": "COC(=O)[C@H](Cc1ccccc1)N[C@@H](c1ccccc1)c1c(O)ccc2ccccc12 (mixture of isomers) [MMZ-45AA]", "measurement": 4.88}
